Field: TGI. Provide a value for each of the molecules that follow.
Tested on: MCF7 breast
protocolDescription: NCI tumour cell line growth inhibition, 48 h
Return type: number; implicit unit µM.

QUERY: // lookup TGI for Oc1cc(O)c2c(c1)OC(c1ccc(O)c(O)c1)C(OC1(c3cc(O)c(O)c(O)c3)Oc3cc(O)cc(O)c3C(O)C1O)C2 (stereo not drawn)
RESULT: 40.2

QUERY: // lookup TGI for O=C(NS(=O)(=O)OCC(Cl)(Cl)Cl)SCCC(F)(F)C(F)(F)C(F)(F)C(F)(F)C(F)(F)C(F)(F)F
RESULT: 40.6

QUERY: // lookup TGI for CC(C)=CCc1cc(O)cc2c1OC(C=C(C)C)C1=C2C(=O)C2=C(NCCS2(=O)=O)C1=O (stereo not drawn)
RESULT: 4.92

QUERY: // lookup TGI for COC1C(O)=C2C(=O)O/C(C)=C/C=C/C=C/C=C\CC(c3ccccc3)NC(=O)\C=C/C=C\C=C\C=C\[C@@]2(C)[C@@H]1O (stereo partly drawn)
RESULT: 0.0175

QUERY: // lookup TGI for NS(=O)(=O)c1ccc(N(/C=C/C(=O)C(F)(F)F)CC(=O)c2ccc(Cl)cc2)cc1
RESULT: 49.7
